- assayed target: human TLR7 (Homo sapiens, UniProt Q9NYK1)
- Construct: TLR7 in pUNO vector, blasticidin selection
- Sequence (Q9NYK1 27-1049): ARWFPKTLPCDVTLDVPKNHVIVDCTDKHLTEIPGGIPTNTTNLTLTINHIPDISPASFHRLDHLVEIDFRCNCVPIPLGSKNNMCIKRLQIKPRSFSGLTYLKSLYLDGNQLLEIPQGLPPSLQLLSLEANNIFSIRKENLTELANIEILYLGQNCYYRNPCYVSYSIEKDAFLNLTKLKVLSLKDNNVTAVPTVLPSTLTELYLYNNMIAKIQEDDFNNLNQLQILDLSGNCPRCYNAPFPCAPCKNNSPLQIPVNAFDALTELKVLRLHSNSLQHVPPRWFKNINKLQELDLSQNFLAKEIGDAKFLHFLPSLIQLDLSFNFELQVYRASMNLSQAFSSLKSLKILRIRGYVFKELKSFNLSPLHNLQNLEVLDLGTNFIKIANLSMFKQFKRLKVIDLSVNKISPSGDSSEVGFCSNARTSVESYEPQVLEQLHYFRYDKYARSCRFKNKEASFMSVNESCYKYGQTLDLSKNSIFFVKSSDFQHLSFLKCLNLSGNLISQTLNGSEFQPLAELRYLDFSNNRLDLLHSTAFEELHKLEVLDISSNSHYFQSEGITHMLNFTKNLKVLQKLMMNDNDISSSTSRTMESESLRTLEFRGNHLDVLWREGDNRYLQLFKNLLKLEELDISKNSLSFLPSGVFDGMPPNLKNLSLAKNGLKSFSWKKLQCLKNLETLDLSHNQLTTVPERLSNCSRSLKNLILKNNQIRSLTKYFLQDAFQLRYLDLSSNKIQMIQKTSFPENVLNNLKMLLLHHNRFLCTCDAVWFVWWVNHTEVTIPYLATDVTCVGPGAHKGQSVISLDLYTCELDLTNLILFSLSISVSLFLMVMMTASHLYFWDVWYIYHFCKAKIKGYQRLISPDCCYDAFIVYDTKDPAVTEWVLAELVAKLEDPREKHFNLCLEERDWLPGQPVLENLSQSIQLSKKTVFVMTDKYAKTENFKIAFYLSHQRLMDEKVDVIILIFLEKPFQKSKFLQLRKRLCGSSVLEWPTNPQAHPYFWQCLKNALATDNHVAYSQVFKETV
- method notes: Human TLR7 Assay (SEAP reporter in HEK293 cells);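 further: Read-out is secreted alkaline phosphatase made under an NFkB/ELAM-1 composite promoter, reporting TLR7-triggered NFkB activation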
- recorded conditions: HEK293 cell line expressing human TLR7 and pNiFty2-SEAP reporter, overnight incubation at 37° C., 0.1% DMSO; read-out: hTLR7 EC50
// assign 1 (yes) if EC50 falls strictly below 0.1 µM, else 0 (no) (ties count as 0 (no))

// query Quick check: does CCOC(=O)COc1cccc(CN(CCCCn2c(CCOC)nc3c(N)nc4ccccc4c32)C(=O)NCCCN2CCCCC2)c1 [Example 128] have EC50 under 0.1 µM?
// result 0 (no)

// query Quick check: does CCOC(=O)COc1cc(F)cc(CN(CCCn2c(CCOC)nc3c(N)nc4ccccc4c32)C(=O)CN(CC)CC)c1 [Example 124] have EC50 under 0.1 µM?
// result 1 (yes)

// query Quick check: does CCOC(=O)C(C)(C)Oc1cccc(CN(CCn2c(CCOC)nc3c(N)nc4ccccc4c32)C(=O)CN(CC)CC)c1 [Example 106] have EC50 under 0.1 µM?
// result 0 (no)

// query Quick check: does CCN(CC)CC(=O)N(CCCn1c(CCOC)nc2c(N)nc3ccccc3c21)Cc1cccc(OCC(=O)OC2CCCC2)c1 [Example 80] have EC50 under 0.1 µM?
// result 1 (yes)

// query Quick check: does CCOC(=O)COc1ccc(CN(CCCCn2c(CCOC)nc3c(N)nc4ccccc4c32)C(=O)NCCN2CCCCC2)cc1 [Example 125] have EC50 under 0.1 µM?
// result 1 (yes)

// query Quick check: does CCN(CC)CC(=O)N(CCCn1c(CCOC)nc2c(N)nc3ccccc3c21)Cc1ccc(C)c(OCC(=O)OC(C)C)c1 [Example 67] have EC50 under 0.1 µM?
// result 1 (yes)

// query Quick check: does CCCCOC(=O)COc1cccc(CN(CCCn2c(CCOC)nc3c(N)nc4ccccc4c32)C(=O)CN(CC)CC)c1 [Example 83] have EC50 under 0.1 µM?
// result 1 (yes)

// query Quick check: does COCCc1nc2c(N)nc3ccccc3c2n1CCCNCc1cccc(OCC(=O)OC)c1 [Example 15] have EC50 under 0.1 µM?
// result 0 (no)

// query Quick check: does CCN(CC)CC(=O)N(CCCn1c(CCOC)nc2c(N)nc3ccccc3c21)Cc1cccc(OCC(=O)OC(C)C)c1F [Example 94] have EC50 under 0.1 µM?
// result 1 (yes)

* * *

- Test system: Male Brown Norway rats
- method notes: Antigen-induced pulmonary inflammation in a rat asthma model (eosinophils and Th2 cytokines in BALF)
- Format: in vivo
- recorded conditions: 0.1 mg/kg intratracheally 24 hours before and 24 hours after OVA-challenge, BALF 48 hours after challenge
- Description: Rats were sensitized and challenged to produce allergic airway inflammation in a similar manner to that described by Underwood et al (British Journal of Pharmacology 2002; 137: 263-275, 2002). Male Brown Norway rats were sensitized subcutaneously with ovalbumin (OVA) and aluminum hydroxide on day 0, and challenged with aerosolized OVA solution on day 14. […] Then eosinophils and Th2 cytokines (IL-5 and IL-13) in the BALF were measured to evaluate efficacy of the test compounds of this invention.
parameter: IL-5 in BALF, inhibition (%) to OVA-Challenge control
One number for each entry, in %.

CCCCc1nc2c(N)nc3ccccc3c2n1CCCN(Cc1cccc(OCC(=O)OC)c1)C(=O)CN(C)C :: 66
CCN(CC)CC(=O)N(CCCn1c(CCOC)nc2c(N)nc3ccccc3c21)Cc1cccc(OC(C)(C)C(=O)OC)c1 :: 86

# map each compound to its IL-5 in BALF, inhibition (%) to OVA-Challenge control
1. CCN(CC)CC(=O)N(CCCn1c(CCOC)nc2c(N)nc3ccccc3c21)Cc1cccc(OCC(=O)OC(C)C)c1F
2. CCN(CC)CC(=O)N(CCCn1c(CCOC)nc2c(N)nc3ccccc3c21)Cc1cccc(OCC(=O)OC(C)C)c1

// result
[34, 41]
